assayed.system: T1, HLA-A*01:01 (human)
T1 construct: MHC class I monomer first loaded with a UV-sensitive peptide (not identified) that is cleaved by UV irradiation and exchanged for the tested peptide; captured on streptavidin plates, detected with anti-β2m; also called peptide-receptive MHC molecules
assay.method.text: UV-ligand exchange, anti-b2m ELISA
measurement.type: peptide exchange yield

Q: Give peptide exchange yield for the following binder: RTIEGDFLW
Result: 20 to 50%

Q: Please list peptide exchange yield recorded for the binder ITDVGPGNY
Result: 50 to 75%

Q: Given the binder LTDSFLLRF , write its reported peptide exchange yield.
Result: > 75%

Q: Read off the recorded peptide exchange yield for LTEKSHIRY
Result: 50 to 75%
